Value source: patent US20250382376A1

Max MFI listing for selected binders.
Experimental System: T1, CD73 on the surface of human cells (human, UniProt P21589 27-549)
T1 construct: whole, on cells; The cell line of each value is named under assay or readout; also called CD73 on the surface of tumor cells; CD73 enzyme on the surface of MDA-MB-231 cells
T1 sequence (looked up): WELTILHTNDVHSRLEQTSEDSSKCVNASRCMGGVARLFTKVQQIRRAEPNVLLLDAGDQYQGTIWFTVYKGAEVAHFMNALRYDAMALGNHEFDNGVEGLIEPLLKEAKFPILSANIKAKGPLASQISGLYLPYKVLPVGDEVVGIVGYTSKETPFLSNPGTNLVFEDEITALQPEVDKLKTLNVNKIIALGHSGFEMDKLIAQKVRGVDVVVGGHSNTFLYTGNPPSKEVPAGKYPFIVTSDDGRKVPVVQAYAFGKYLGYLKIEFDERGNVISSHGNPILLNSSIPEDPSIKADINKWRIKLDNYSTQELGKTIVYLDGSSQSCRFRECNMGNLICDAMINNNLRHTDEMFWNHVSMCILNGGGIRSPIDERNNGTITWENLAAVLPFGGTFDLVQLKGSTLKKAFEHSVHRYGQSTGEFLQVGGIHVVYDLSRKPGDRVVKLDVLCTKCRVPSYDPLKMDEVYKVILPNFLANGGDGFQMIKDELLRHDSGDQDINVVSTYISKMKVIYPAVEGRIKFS
Test Description: Flow cytometry on NCI-H1299 cells
Quantity Name: Max MFI (MFI)

Binder | Value
humanized antibody 3D7-HM8-FC1 (Fc fusion) heavy: QRQLVESGGGLVQPGGSLRLSCAASGFLLDYYVIGWFRQAPGKEREGVSCISGSDRSTYYADSVKGRFTISRDNSKNTVYLQMSSLRAEDTAVYYCAADPSPVTVQAMCLPRFPVPYWGQGTLVTVSSEPKSSDKTHTCPPCPAPEFEGGPSVFLFPPKPKDTLMISRTPEVTCVVVDVSHEDPEVKFNWYVDGVEVHNAKTKPREEQYNSTYRVVSVLTVLHQDWLNGKEYKCKVSNKALPASIEKTISKAKGQPREPQVYTLPPSRDELTKNQVSLTCLVKGFYPSDIAVEWESNGQPENNYKTTPPVLDSDGSFFLYSKLTVDKSRWQQGNVFSCSVMHEALHNHYTQKSLSLSPGK | 106000
humanized antibody 3D7-HM7-FC1 (Fc fusion) heavy: QRQLVESGGGLVQPGGSLRLSCAASGFLLDYYVIGWFRQAPGKEREGVSCISGSDRSTYYADSVKGRFTISRDNSKNTVYLQMGSLRAEDTAVYYCAADPSPVTVQAMCLPRFPVPYWGQGTLVTVSSEPKSSDKTHTCPPCPAPEFEGGPSVFLFPPKPKDTLMISRTPEVTCVVVDVSHEDPEVKFNWYVDGVEVHNAKTKPREEQYNSTYRVVSVLTVLHQDWLNGKEYKCKVSNKALPASIEKTISKAKGQPREPQVYTLPPSRDELTKNQVSLTCLVKGFYPSDIAVEWESNGQPENNYKTTPPVLDSDGSFFLYSKLTVDKSRWQQGNVFSCSVMHEALHNHYTQKSLSLSPGK | 103000
humanized antibody 3D7-HM9-FC1 (Fc fusion) heavy: QRQLVESGGGLVQPGGSLRLSCAASGFLLDYYVIGWFRQAPGKEREGVSCISGSDRSTYYADSVKGRFTISRDNAKNTVYLQMSSLRAEDTAVYYCAADPSPVTVQAMCLPRFPVPYWGKGTLVTVSSEPKSSDKTHTCPPCPAPEFEGGPSVFLFPPKPKDTLMISRTPEVTCVVVDVSHEDPEVKFNWYVDGVEVHNAKTKPREEQYNSTYRVVSVLTVLHQDWLNGKEYKCKVSNKALPASIEKTISKAKGQPREPQVYTLPPSRDELTKNQVSLTCLVKGFYPSDIAVEWESNGQPENNYKTTPPVLDSDGSFFLYSKLTVDKSRWQQGNVFSCSVMHEALHNHYTQKSLSLSPGK | 105000
chimeric nanobody 3-D7 (Fc fusion, Human-alpaca chimeric antibody (VHH on hIgG1 Fc); Only the VHH is tied to the tested molecule; 37-39 exist for 3-D7-FC1/FC2/FC3; also called original antibody 3-D7) VHH: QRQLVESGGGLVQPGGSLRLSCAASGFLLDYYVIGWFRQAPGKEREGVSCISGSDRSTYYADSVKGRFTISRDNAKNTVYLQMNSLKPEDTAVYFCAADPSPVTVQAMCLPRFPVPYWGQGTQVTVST | 105000
